- System: MDA-MB-435
- ASSAY_EXPLANATION: NCI tumour cell line growth inhibition, 48 h

ENTRY_SMILES: O=C(CCc1cccc(O)c1)NCCc1cccc(O)c1
TGI: > 100 µM

ENTRY_SMILES: CCNc1nc(N)c(C(=O)c2ccc(Cl)cc2)s1
TGI: > 100 µM

ENTRY_SMILES: CCc1nc(N)nc(N)c1-c1ccc(Cl)cc1
TGI: > 100 µM

* * *

- Tested on: CCRF-CEM leukemia
- ASSAY_EXPLANATION: NCI tumour cell line growth inhibition, 48 h; in the data active = GI50 below about 0.43 µM; inactive = the rest
Outcome codes: active, inactive

COMPOUND: COc1ccccc1/C=C1\COc2ccc(O)c(O)c2C1=O
DISCRETE_LABEL: active
//
COMPOUND: C(=N\Nc1ncc(-c2cc3cc4c(cc3o2)OCO4)s1)/c1c[nH]c2ccccc12
DISCRETE_LABEL: active
//
COMPOUND: C#Cc1cccc(NC(=O)Nc2ccccc2NC(=O)CCl)c1
DISCRETE_LABEL: inactive
//
COMPOUND: CC/C=C/[C@@H]1C=C[C@@H]2CCC[C@H]2[C@@H]1CC[C@H](O)[C@H](C)N
DISCRETE_LABEL: inactive
//
COMPOUND: CC(C)(O)Cn1c(=O)c(Oc2ccc(F)cc2F)cc2cnc(NC3CCOCC3)nc21
DISCRETE_LABEL: inactive
//
COMPOUND: COc1ccc([C@H]2c3cc(OC)c(OC)cc3C=C(C=O)C2CO)cc1OC (some centres not stated)
DISCRETE_LABEL: inactive
//
COMPOUND: CCOC(=O)c1cc2c(n1Cc1cccc(OC)c1)-c1oncc1CC2
DISCRETE_LABEL: inactive

* * *

Readings of TGI for the listed molecules
- Tested on: OVCAR-3 ovarian
- ASSAY_EXPLANATION: NCI tumour cell line growth inhibition, 48 h

MOLECULE: COc1ccc(CCNc2nc3ccccc3c3[nH]c4ccccc4c23)cc1OC
TGI: 4.24 µM
//
MOLECULE: COc1cc(C2c3cc4c(cc3C(O)C3CCC(=O)N23)OCO4)cc(OC)c1OC (stereo not given)
TGI: > 100 µM
//
MOLECULE: CC(=O)OC1COC(N2C(=O)C(=O)c3c(C)cc(Cl)nc32)C(OC(C)=O)C1OC(C)=O (stereo not given)
TGI: > 100 µM
//
MOLECULE: O=[N+]([O-])C(/C(Cl)=C(/Cl)N1CCOCC1)=C1\NCCO1
TGI: > 100 µM
//
MOLECULE: O=C(O)Cc1ccc(Oc2nc3ccccc3nc2-c2cccs2)cc1
TGI: > 100 µM
//
MOLECULE: c1ccc([CH2][Sn]([CH2]c2ccccc2)([S]c2cccc3cccnc23)[S]c2cccc3cccnc23)cc1
TGI: 0.383 µM
//
MOLECULE: Cc1cccc2c1C(=O)C1(Cc3ccccc3C1=O)C2 (stereo not given)
TGI: > 100 µM
//
MOLECULE: Cc1cc(S(=O)(=O)Nc2nc3ccsc3c(=O)n2N)c(S)cc1Cl
TGI: > 100 µM
//
MOLECULE: CCOC(=O)c1c(SC(=O)c2cc(OC)c(OC)c(OC)c2)n(-c2ccccc2)c(=S)n(-c2ccccc2)c1=O
TGI: > 100 µM
//
MOLECULE: CC(=O)NNc1nc(C)c(C(/C=C/c2ccc(/C=C/C(=N\NC(=O)c3ccncc3)c3sc(NNC(C)=O)nc3C)cc2)=N/NC(=O)c2ccncc2)s1
TGI: > 100 µM

* * *

- System: IGROV1 ovarian
- ASSAY_EXPLANATION: NCI tumour cell line growth inhibition, 48 h
TGI values by entry
TEST_READOUT: TGI

COMPOUND: COc1ccc(/C=C2/SC(=Nc3c(C)nn(-c4ccccc4)c3N)NC2=O)cc1
TEST_READOUT: TGI
RESULT: 28.8 µM

COMPOUND: CC(C)CC(=O)NC(Nc1ccc(S(=O)(=O)Nc2ncccn2)cc1)(C(F)(F)F)C(F)(F)F
TEST_READOUT: TGI
RESULT: > 100 µM

COMPOUND: COc1c(O)c2ccccc2c2cc(O)ccc12
TEST_READOUT: TGI
RESULT: 21.6 µM

COMPOUND: CC(=O)N1N=C(c2c(O)ccc3ccccc23)CC1C(=O)c1ccco1 (stereo not drawn)
TEST_READOUT: TGI
RESULT: > 100 µM

COMPOUND: O=c1[nH]nc(-c2ccccc2)c(-c2ccccc2)c1-n1nc(-c2ccccc2)c2ccccc2c1=O
TEST_READOUT: TGI
RESULT: > 100 µM

COMPOUND: COC(=O)C(=O)C(C#N)c1cccc2ccccc12 (stereo not drawn)
TEST_READOUT: TGI
RESULT: > 100 µM

COMPOUND: CC(=O)Oc1c(-c2ccccc2)[nH]c2cc([N+](=O)[O-])c(/C(Cl)=C/c3ccccc3)cc12
TEST_READOUT: TGI
RESULT: 65.8 µM

COMPOUND: O=S(=O)(c1ccccc1)n1c(C(O)c2ccncc2)cc2ccccc21 (stereo not drawn)
TEST_READOUT: TGI
RESULT: > 100 µM

COMPOUND: Brc1ccc2c(-c3nc(-c4c[nH]c5ccccc45)cs3)c[nH]c2c1
TEST_READOUT: TGI
RESULT: > 100 µM

COMPOUND: COC(=O)C1=C(O)C(O)=C(C(=O)OC)CC1
TEST_READOUT: TGI
RESULT: > 100 µM

COMPOUND: CO/C(=N\N=C\c1ccc(Cl)cc1)c1ccncc1
TEST_READOUT: TGI
RESULT: > 100 µM

COMPOUND: C1=C[C@@H]2c3ccc4cnccc4c3NC[C@@H]2C1
TEST_READOUT: TGI
RESULT: > 100 µM

COMPOUND: COc1ccc(NC(=O)c2ccc(NC3=C(Cl)C(=O)N(Cc4ccccc4)C3=O)cc2)cc1
TEST_READOUT: TGI
RESULT: 3.93 µM

* * *

- Tested on: UO-31 renal
- ASSAY_EXPLANATION: NCI tumour cell line growth inhibition, 48 h
This listing pairs compounds with measured TGI.
TEST_READOUT: TGI

COMPOUND: O=c1c2ccccc2oc2c1ccc1ncccc12
RESULT: 40.9 µM
//
COMPOUND: C=C1C(=O)O[C@@H]2[C@@H]3O[C@@](C)(CC/C=C(\C)CCC[C@@H]2C)[C@H](O)C[C@@H]13
RESULT: 2.93 µM
//
COMPOUND: Cc1cn(C2CC(O)C(CO)C2C)c(=O)[nH]c1=O (stereo not drawn)
RESULT: > 100 µM
//
COMPOUND: CC1CN=C(Nc2cccc(C(F)(F)F)c2)S1 (stereo not drawn)
RESULT: 78.6 µM
//
COMPOUND: COC(=O)C1Cc2c([nH]c3ccccc23)[C@H](CC(C)C)N1 (stereo partly drawn)
RESULT: > 100 µM
//
COMPOUND: CC1CN(CCO)CC(C)O1 (stereo not drawn)
RESULT: > 100 µM
//
COMPOUND: C[N+](C)(C)CC(=O)N/N=C(/C=C/c1ccccc1)CC1OC(=O)c2ccccc21 (stereo not drawn)
RESULT: > 100 µM
//
COMPOUND: O=C(O)CC(NC(=O)Nc1ccc([N+](=O)[O-])cc1)C(=O)Nc1ccc([N+](=O)[O-])cc1 (stereo not drawn)
RESULT: > 100 µM
//
COMPOUND: CC(C)(O)Cn1c(=O)c(Oc2ccc(F)cc2F)cc2cnc(NC3CCOCC3)nc21
RESULT: > 25 µM
//
COMPOUND: Cc1cccc2c1C(=O)C1(Cc3ccccc3C1=O)C2 (stereo not drawn)
RESULT: 96.2 µM
//
COMPOUND: C=CCOc1ccc(C2c3c([nH][nH]c3=O)CC(O)(OCC)C2C(=O)OCC)cc1OC (stereo not drawn)
RESULT: > 100 µM
//
COMPOUND: CC(C)Oc1cc(OCC(=O)O)cc(C(=O)N(CCC(N)=O)C(=O)Nc2ccc(C(=O)O)cc2OC(C)C)c1
RESULT: > 100 µM
//
COMPOUND: CSC1=Nc2ccccc2-c2nc(-c3ccccc3)cc(-c3ccccc3)c2C1
RESULT: 76.6 µM

* * *

- System: SN12C renal
- ASSAY_EXPLANATION: NCI tumour cell line growth inhibition, 48 h
TEST_READOUT: TGI

MOLECULE: C=C1C(=O)OC(CCCCCCCC)C1C(=O)O (stereo not given)
TEST_READOUT: TGI
RESULT: 28.5 µM

MOLECULE: CC(=O)N1N=C(c2c(O)ccc3ccccc23)CC1C(=O)c1ccco1 (stereo not given)
TEST_READOUT: TGI
RESULT: > 100 µM

MOLECULE: CN1CCC(O)C(CNC23CC4CC(CC(C4)C2)C3)C1 (stereo not given)
TEST_READOUT: TGI
RESULT: > 100 µM

MOLECULE: COc1c(O)c2ccccc2c2cc(O)ccc12
TEST_READOUT: TGI
RESULT: 14.1 µM

MOLECULE: CCN1CCC(C(=O)Nc2n[nH]c3nnc(-c4cccc(F)c4F)cc23)CC1
TEST_READOUT: TGI
RESULT: > 25 µM

MOLECULE: CC(=O)O[C@@H]1C=CC(=O)C2(CC(=O)O[C@@H]2/C=C(\C)CCC=C(C)C)C1 (stereo not given in full)
TEST_READOUT: TGI
RESULT: 2.27 µM

MOLECULE: N#Cc1c(N)nn(C(=O)c2ccc(NC(=O)c3ccccn3)cc2)c1-c1ccc(Cl)cc1
TEST_READOUT: TGI
RESULT: > 100 µM

MOLECULE: C=C1C(=O)OC2C1C(OC(=O)/C(=C/C)COC(C)=O)CC1(CO1)C1C(OC(=O)/C(=C/C)CO)C=C(C)C21 (stereo not given)
TEST_READOUT: TGI
RESULT: 3.81 µM

MOLECULE: COc1ccc(/C=C2/SC(=Nc3c(C)nn(-c4ccccc4)c3N)NC2=O)cc1
TEST_READOUT: TGI
RESULT: 55.2 µM

MOLECULE: CC(=O)OC1COC(N2C(=O)C(=O)c3c(C)cc(Cl)nc32)C(OC(C)=O)C1OC(C)=O (stereo not given)
TEST_READOUT: TGI
RESULT: > 100 µM

MOLECULE: COC12C=C/C(=C(/C(=O)OCc3ccncn3)C(=O)CCCCCCCCC3(OC)C=C/C(=C(/C(=O)OCc4ccncn4)C(=O)CCCCCCCC1)O3)O2
TEST_READOUT: TGI
RESULT: 1.12 µM

MOLECULE: O=P(O)(O)OC1C(OP(=O)(O)O)C(OP(=O)(O)O)C(OP(=O)(O)O)C(OP(=O)(O)O)C1OP(=O)(O)O (stereo not given)
TEST_READOUT: TGI
RESULT: > 2000 µM

MOLECULE: CCN(CC)CCN(C)CC(C)(C)C(=O)/C=C/c1ccccc1
TEST_READOUT: TGI
RESULT: 22.7 µM

MOLECULE: O=[N+]([O-])C(/C(Cl)=C(/Cl)N1CCOCC1)=C1\NCCO1
TEST_READOUT: TGI
RESULT: > 100 µM

MOLECULE: CCSSCS(C)(=O)=O
TEST_READOUT: TGI
RESULT: 67.8 µM

MOLECULE: Cc1c2c(n3c(nc4ccccc43)c1C#N)SCC2
TEST_READOUT: TGI
RESULT: > 10 µM

MOLECULE: COC1CCC(=C2C(=O)OC(C)(C)OC2=O)N1 (stereo not given)
TEST_READOUT: TGI
RESULT: > 100 µM

MOLECULE: CCOC(=O)C(=[N+]=[N-])C(=O)C[N+]12CCN(CC1)CC2
TEST_READOUT: TGI
RESULT: > 100 µM

MOLECULE: O=C(Nc1ccccc1)c1cc2c(cc1Cl)Sc1nccn1S2(=O)=O
TEST_READOUT: TGI
RESULT: > 100 µM

MOLECULE: CN(C)CCCn1c(Cc2ccccc2)nc2cc(C(F)(F)F)ccc21
TEST_READOUT: TGI
RESULT: > 100 µM

Data credit: PubChem BioAssay (NCI)
